Data provenance is patent US20260365647A1.

Recorded IC50 by entry
target: AKT1-E17K (Homo sapiens, UniProt P31749, E17K); test: NanoBRET Target Engagement (TE) Assay
Sequence (P31749 whole entry E17K): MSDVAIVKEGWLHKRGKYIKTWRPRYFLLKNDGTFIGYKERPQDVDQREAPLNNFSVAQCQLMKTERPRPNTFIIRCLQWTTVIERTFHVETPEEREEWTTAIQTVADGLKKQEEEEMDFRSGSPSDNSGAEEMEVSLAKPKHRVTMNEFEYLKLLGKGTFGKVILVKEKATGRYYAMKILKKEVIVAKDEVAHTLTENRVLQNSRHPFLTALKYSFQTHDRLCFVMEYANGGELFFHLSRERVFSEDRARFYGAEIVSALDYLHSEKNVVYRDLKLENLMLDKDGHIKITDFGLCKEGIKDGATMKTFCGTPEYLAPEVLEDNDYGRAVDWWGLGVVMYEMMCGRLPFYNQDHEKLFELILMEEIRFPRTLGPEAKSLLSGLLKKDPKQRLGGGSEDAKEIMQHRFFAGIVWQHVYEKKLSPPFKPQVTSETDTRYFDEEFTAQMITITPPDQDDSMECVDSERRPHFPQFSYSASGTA

[
  {
    "Smi": "Nc1ncccc1-c1nc2ccc(-c3cccc(Cl)c3)nc2n1-c1ccc(CN2CCN(C(=O)c3ccc(O)c(C=O)c3)CC2)cc1",
    "IC50": "60 to 600 nM"
  },
  {
    "Smi": "N#Cc1ccccc1-c1ccc2nc(-c3cccnc3N)n(-c3ccc(CN4CCN(C(=O)c5ccc(O)c(C=O)c5)CC4)cc3)c2n1",
    "IC50": "> 600 nM"
  },
  {
    "Smi": "Nc1ncccc1-c1nc2ccc(-c3ccccc3)nc2n1-c1ccc(CN2C[C@@H]3C[C@H]2CN3C(=O)c2ccc(O)c(C=O)c2)cc1",
    "IC50": "60 to 600 nM"
  },
  {
    "Smi": "Nc1ncccc1-c1nc2ccc(-c3ccccc3)nc2n1-c1ccc(CN2C[C@@H]3C[C@H]2CN3c2ccc(C=O)c(O)c2)cc1",
    "IC50": "60 to 600 nM"
  },
  {
    "Smi": "Nc1ncccc1-c1nc2ccc(-c3ccccc3)nc2n1-c1ccc(CN2CCC(NC(=O)c3ccc(O)c(C=O)c3)CC2)cc1",
    "IC50": "< 15 nM"
  },
  {
    "Smi": "Nc1ncccc1-c1nc2ccc(-c3ccccc3)nc2n1-c1ccc(CN2CCC(NC(=O)c3cccc(C=O)c3O)CC2)cc1",
    "IC50": "15 to 60 nM"
  }
]

* * *

Recorded pIC50 by entry
molecular target: AKT1-E17K (Homo sapiens, UniProt P31749, E17K); test: NanoBRET Target Engagement (TE) Assay
pIC50: −log10 of the molar value.

[
  {
    "Compound": "Nc1ncccc1-c1nc2ccc(-c3ccccc3)nc2n1-c1ccc(CN2CCCN(C(=O)c3ccc(O)c(C=O)c3)CC2)cc1 [Example 119]",
    "System tested": "AKT1-E17K (Homo sapiens, UniProt P31749, E17K)",
    "pIC50": "7.22 to 7.82"
  },
  {
    "Compound": "Nc1ncccc1-c1nc2ccc(-c3ccccc3)nc2n1-c1ccc(CN2CC[C@@]3(CCN(c4ccc(C=O)c(O)c4)C3)C2)cc1 [Example 100]",
    "System tested": "AKT1-E17K (Homo sapiens, UniProt P31749, E17K)",
    "pIC50": "6.22 to 7.22"
  },
  {
    "Compound": "Nc1ncccc1-c1nc2ccc(-c3ccccc3)nc2n1-c1ccc(CN2CC(NC(=O)c3ccc(O)c(C=O)c3)C2)cc1 [Example 61]",
    "System tested": "AKT1-E17K (Homo sapiens, UniProt P31749, E17K)",
    "pIC50": "7.22 to 7.82"
  },
  {
    "Compound": "Nc1ncccc1-c1nc2ccc(-c3ccccc3)nc2n1-c1ccc(CN2CCC[C@@H](NC(=O)c3ccc(O)c(C=O)c3)C2)cc1 [Example 58]",
    "System tested": "AKT1-E17K (Homo sapiens, UniProt P31749, E17K)",
    "pIC50": "7.22 to 7.82"
  },
  {
    "Compound": "Nc1ncccc1-c1nc2ccc(-c3ccccc3)nc2n1-c1ccc(CN2C[C@@H]3CN(C(=O)c4ccc(C=O)c(O)c4)C[C@@H]3C2)cc1 [Example 132]",
    "System tested": "AKT1-E17K (Homo sapiens, UniProt P31749, E17K)",
    "pIC50": "6.22 to 7.22"
  },
  {
    "Compound": "Nc1ncccc1-c1nc2ccc(-c3ccccc3)nc2n1-c1ccc(CN2CC[C@@]3(CCN(C(=O)c4ccc(C=O)c(O)c4)C3)C2)cc1 [Example 99]",
    "System tested": "AKT1-E17K (Homo sapiens, UniProt P31749, E17K)",
    "pIC50": "6.22 to 7.22"
  },
  {
    "Compound": "Nc1ncccc1-c1nc2ccc(-c3ccccc3)nc2n1-c1ccc(CN2C[C@@H]3CN(c4ccc(O)c(C=O)c4)C[C@@H]3C2)cc1 [Example 134]",
    "System tested": "AKT1-E17K (Homo sapiens, UniProt P31749, E17K)",
    "pIC50": "6.22 to 7.22"
  },
  {
    "Compound": "Nc1ncccc1-c1nc2cccnc2n1-c1ccc(CNC(=O)c2ccc(O)c(C=O)c2)cc1 [Example 2]",
    "System tested": "AKT1-E17K (Homo sapiens, UniProt P31749, E17K)",
    "pIC50": "6.22 to 7.22"
  },
  {
    "Compound": "Nc1ncccc1-c1nc2ccc(-c3ccccc3)nc2n1-c1ccc(CN2CCN(c3cccc(C=O)c3O)CC2)cc1 [Example 23]",
    "System tested": "AKT1-E17K (Homo sapiens, UniProt P31749, E17K)",
    "pIC50": "6.22 to 7.22"
  },
  {
    "Compound": "Nc1ncccc1-c1nc2ccc(-c3ccccc3)nc2n1-c1ccc(CN2CCC3(CCN(c4ccc(C=O)c(O)c4)CC3)C2)cc1 [Example 85]",
    "System tested": "AKT1-E17K (Homo sapiens, UniProt P31749, E17K)",
    "pIC50": "6.22 to 7.22"
  },
  {
    "Compound": "Nc1ncccc1-c1nc2ccc(-c3ccccc3)nc2n1-c1ccc(CN2CC[C@]3(CCN(C(=O)c4ccc(O)c(C=O)c4)C3)C2)cc1 [Example 101]",
    "System tested": "AKT1-E17K (Homo sapiens, UniProt P31749, E17K)",
    "pIC50": "6.22 to 7.22"
  },
  {
    "Compound": "Nc1ncccc1-c1nc2ccc(-c3cccc(=O)[nH]3)nc2n1-c1ccc(CN2CCN(C(=O)c3ccc(O)c(C=O)c3)CC2)cc1 [Example 45]",
    "System tested": "AKT1-E17K (Homo sapiens, UniProt P31749, E17K)",
    "pIC50": "< 6.22"
  },
  {
    "Compound": "Nc1ncccc1-c1nc2ccc(-c3ccccc3)nc2n1-c1ccc(CN2CC3(C2)CN(c2ccc(O)c(C=O)c2)C3)cc1 [Example 91]",
    "System tested": "AKT1-E17K (Homo sapiens, UniProt P31749, E17K)",
    "pIC50": "6.22 to 7.22"
  }
]

* * *

Biological target: AKT1-E17K (Homo sapiens, UniProt P31749, E17K)
Assay: NanoBRET Target Engagement (TE) Assay
Procedure: The NanoBRET™ Target Engagement (TE) Intracellular Kinase Assays are based on the NanoBRET™ System (Promega Corporation), an energy transfer technique designed to measure molecular proximity in living cells. […] All cells were evaluated for viability prior to transfection and optimization of the transfection was done prior to experimentation. […] Milli-BRET units (mBU) are calculated by multiplying the raw BRET values by 1000. […]

[
  {
    "Molecule": "Nc1ncccc1-c1nc2ccc(-c3ccc(Cl)cc3)nc2n1-c1ccc(CN2CCN(C(=O)c3ccc(O)c(C=O)c3)CC2)cc1 [Example 147]",
    "System tested": "AKT1-E17K (Homo sapiens, UniProt P31749, E17K)",
    "IC50": "> 600 nM"
  },
  {
    "Molecule": "Nc1ncccc1-c1nc2ccc(-c3ccccc3)nc2n1-c1ccc(CN2CCC(Oc3ccc(C=O)c(O)c3)CC2)cc1 [Example 129]",
    "System tested": "AKT1-E17K (Homo sapiens, UniProt P31749, E17K)",
    "IC50": "15 to 60 nM"
  },
  {
    "Molecule": "Nc1ncccc1-c1nc2ccc(-c3ccccc3)nc2n1-c1ccc(CN2CC3(C2)CN(c2ccc(C=O)c(O)c2)C3)cc1 [Example 89]",
    "System tested": "AKT1-E17K (Homo sapiens, UniProt P31749, E17K)",
    "IC50": "15 to 60 nM"
  },
  {
    "Molecule": "Nc1ncccc1-c1nc2cc(-c3ccccc3)cnc2n1-c1ccc(CN2CCN(c3ccc(C=O)c(O)c3)CC2)cc1 [Example 54]",
    "System tested": "AKT1-E17K (Homo sapiens, UniProt P31749, E17K)",
    "IC50": "60 to 600 nM"
  },
  {
    "Molecule": "Nc1ncccc1-c1nc2ccc(-c3ccccc3)nc2n1-c1ccc(CN2CC3CCC2CN3C(=O)c2ccc(C=O)c(O)c2)cc1 (stereo not shown) [Example 125]",
    "System tested": "AKT1-E17K (Homo sapiens, UniProt P31749, E17K)",
    "IC50": "60 to 600 nM"
  },
  {
    "Molecule": "Nc1ncccc1-c1nc2ccc(N3CCOCC3)nc2n1-c1ccc(CN2CCN(C(=O)c3ccc(C=O)c(O)c3)CC2)cc1 [Example 33]",
    "System tested": "AKT1-E17K (Homo sapiens, UniProt P31749, E17K)",
    "IC50": "> 600 nM"
  },
  {
    "Molecule": "Nc1ncccc1-c1nc2ccc(-c3ccc[nH]c3=O)nc2n1-c1ccc(CN2CCN(C(=O)c3ccc(C=O)c(O)c3)CC2)cc1 [Example 15]",
    "System tested": "AKT1-E17K (Homo sapiens, UniProt P31749, E17K)",
    "IC50": "> 600 nM"
  }
]
